- target.system: HLA-B*44:02
- assay.remarks: IEDB peptide-MHC binding, purified MHC/competitive/fluorescence; filed as Kd, often an IC50 or EC50 that approximates it; bounds were set here for any values at or beyond the usual limits of such assays
- condition.notes: source organism: Bacillus anthracis str. A0488
pKd: −log10 of the molar value.
readout: pKd

Inquiry: Recorded pKd for WDAYIPHYV with HLA-B*44:02, please?
Reply text: ≤ 5.30

* * *

- target.system: HLA-B*27:05
- assay.remarks: IEDB peptide-MHC binding, purified MHC/direct/fluorescence; filed as Kd, often an IC50 or EC50 that approximates it; bounds were set here for any values at or beyond the usual limits of such assays
- condition.notes: source organism: Salmonella enterica
readout: Kd

Inquiry: Dear colleague, I am looking for the recorded Kd of the following sequence: RPQLGVGDV
Reply text: ≥ 20 µM

* * *

- target.system: HLA-B*73:01
- assay.remarks: IEDB peptide-MHC binding, purified MHC/direct/fluorescence; filed as Kd, often an IC50 or EC50 that approximates it; bounds were set here for any values at or beyond the usual limits of such assays
- condition.notes: source organism: Vibrio parahaemolyticus AQ3810
readout: Kd (µM)
I only need the number, in µM, no unit after it.

Inquiry: Dear colleague, I am looking for the recorded Kd of the following sequence: IRSCWRYRK
Reply text: 3.88

* * *

- target.system: HLA-B*40:02
- assay.remarks: IEDB peptide-MHC binding, cellular MHC/competitive/fluorescence; bounds were set here for any values at or beyond the usual limits of such assays
- condition.notes: source organism: Homo sapiens
readout: pIC50
Worth noting: pIC50 values are minus log10 of concentrations stated in mol/L.

Inquiry: Dear colleague, I am looking for the recorded pIC50 of the following sequence: GSFSRFYSL
Reply text: 6.52

* * *

- target.system: HLA-B*58:01
- assay.remarks: IEDB peptide-MHC binding, purified MHC/direct/fluorescence; filed as Kd, often an IC50 or EC50 that approximates it; bounds were set here for any values at or beyond the usual limits of such assays
- condition.notes: source organism: Sudan virus - Boniface, Sudan,1976
readout: Kd

Inquiry: Dear colleague, I am looking for the recorded Kd of the following sequence: TMMRHRREL
Reply text: ≥ 20 µM

* * *

- target.system: HLA-B*39:01
- assay.remarks: IEDB peptide-MHC binding, purified MHC/direct/fluorescence; filed as Kd, often an IC50 or EC50 that approximates it; bounds were set here for any values at or beyond the usual limits of such assays
- condition.notes: source organism: Bacillus anthracis str. A0488
pKd: −log10 of the molar value.
readout: pKd

Inquiry: Dear colleague, I am looking for the recorded pKd of the following sequence: WDAYIPHYV
Reply text: ≤ 4.70

* * *

- target.system: HLA-A*68:02
- assay.remarks: IEDB peptide-MHC binding, purified MHC/competitive/fluorescence; filed as Kd, often an IC50 or EC50 that approximates it; bounds were set here for any values at or beyond the usual limits of such assays
- condition.notes: source organism: Variola virus
readout: Kd

Inquiry: Dear colleague, I am looking for the recorded Kd of the following sequence: EYKKFIATF
Reply text: ≥ 20 µM

* * *

- target.system: HLA-B*15:01
- assay.remarks: IEDB peptide-MHC binding, purified MHC/competitive/radioactivity; filed as Kd, often an IC50 or EC50 that approximates it; bounds were set here for any values at or beyond the usual limits of such assays
- condition.notes: source organism: Dengue virus 3 Sri Lanka/1266/2000
readout: Kd (nM)
I only need the number, in nM, no unit after it.

Inquiry: Dear colleague, I am looking for the recorded Kd of the following sequence: LIVSGIFPY
Reply text: 2.91
